The origin of these recorded values is paper PMC11766601.

Tested on: Caco-2 cell monolayers
Assay: Toxin crossing and apparent permeability across Caco-2 cell monolayers (A to B), LC-MS/MS
Format: in vitro ADME, human
Settings: 6 h, loaded 32 ng/mL, A to B, relative to quantified T0
Procedure: All experiments were performed with human intestinal Caco-2 cells (ATCC-HTB37), acquired from the American Type Culture Collection (ATCC; Manassas, VA, USA). Caco-2 cells originate from a colorectal adenocarcinoma, but upon reaching confluence, they differentiate and express the characteristics of enterocytes. […] The LC-MS/MS analysis of toxins was implemented for the quantitative analysis of toxins. […]
# if measured Percentage of toxin crossing the Caco-2 cell monolayers < 40%: condition met  # else: condition not met

compound: C=CC1=CC2C3OC4(CC5CCCC6(CCC7(OC(CCC7(C)O)CC(=C)CCCC7=NCC(C)C(C)CC72CC1)O6)O5)CC(C)C(O)C3O4 (stereo not drawn)
category: condition not met

compound: C=C1CCCC2=NCC(C)C(C)CC23CCC(C(=O)O)=CC3C2OC3(CC4CCCC5(CCC6(OC(CCC6(C)O)C1)O5)O4)CC(C)C(O)C2O3 (stereo not drawn)
category: condition met

compound: C=C1CCCC2=NCC(C)C(C)CC23CCC(C2CCC(=O)O2)=CC3C2OC3(CC(C)CC2O3)CC2OC3(CCC4(OC(CCC4(C)O)C1)O3)CC(C)C2O (stereo not drawn)
category: condition met

compound: C=C1CCCC2=NCC(C)C(C)CC23CCC(C(O)CCC(=O)O)=CC3C2OC3(CC(C)CC2O3)CC2OC3(CCC4(OC(CCC4(C)O)C1)O3)CC(C)C2O (stereo not drawn)
category: condition met

compound: C=CC1=CC2C3OC4(CC(C)CC3O4)CC3OC4(CCC5(OC(CCC5(C)O)CC(=C)CCCC5=NCC(C)C(C)CC52CC1)O4)CC(C)C3O (stereo not drawn)
category: condition not met

###

Listed here are compounds together with their documented Papp at 6 h, 32 ng/mL.
assay: Toxin crossing and apparent permeability across Caco-2 cell monolayers (A to B), LC-MS/MS; type: in vitro ADME, human; settings: human, Caco-2; 6 h, loaded 32 ng/mL, A to B

compound: C=C1CCCC2=NCC(C)C(C)CC23CCC(C(O)CCC(=O)O)=CC3C2OC3(CC(C)CC2O3)CC2OC3(CCC4(OC(CCC4(C)O)C1)O3)CC(C)C2O (stereo not drawn) [PnTX-E]
unit annotation: ×10⁻⁶ cm/s
Papp at 6 h, 32 ng/mL: 2.38
//
compound: C=CC1=CC2C3O[C@]4(CCC(O4)[C@@H](C)C[C@@H](O)C3=O)C[C@H](O)C3=NCC[C@@]32CC1 (stereo partly drawn) [Portimine, portimine]
unit annotation: ×10⁻⁶ cm/s
Papp at 6 h, 32 ng/mL: 24.5
//
compound: C=CC1=CC2C3OC4(CC(C)CC3O4)CC3OC4(CCC5(OC(CCC5(C)O)CC(=C)CCCC5=NCC(C)C(C)CC52CC1)O4)CC(C)C3O (stereo not drawn) [PnTX-H, Pinnatoxin H]
unit annotation: ×10⁻⁶ cm/s
Papp at 6 h, 32 ng/mL: 33.6
//
compound: C=C1CCCC2=NCC(C)C(C)CC23CCC(C(=O)O)=CC3C2OC3(CC4CCCC5(CCC6(OC(CCC6(C)O)C1)O5)O4)CC(C)C(O)C2O3 (stereo not drawn) [PnTX-A]
unit annotation: ×10⁻⁶ cm/s
Papp at 6 h, 32 ng/mL: 1.48
//
compound: C=CC1=CC2C3OC4(CC5CCCC6(CCC7(OC(CCC7(C)O)CC(=C)CCCC7=NCC(C)C(C)CC72CC1)O6)O5)CC(C)C(O)C3O4 (stereo not drawn) [PnTX-G, Pinnatoxin G]
unit annotation: ×10⁻⁶ cm/s
Papp at 6 h, 32 ng/mL: 26.9
//
compound: C=C1CCCC2=NCC(C)C(C)CC23CCC(C2CCC(=O)O2)=CC3C2OC3(CC(C)CC2O3)CC2OC3(CCC4(OC(CCC4(C)O)C1)O3)CC(C)C2O (stereo not drawn) [PnTX-F]
unit annotation: ×10⁻⁶ cm/s
Papp at 6 h, 32 ng/mL: 13.7

###

system: Caco-2 cell monolayers; assay: Toxin crossing and apparent permeability across Caco-2 cell monolayers (A to B), LC-MS/MS; type: in vitro ADME, human; conditions: 6 h, loaded 8 ng/mL, A to B, relative to quantified T0
Listed here are molecules together with their documented Percentage of toxin crossing the Caco-2 cell monolayers.
metric: Percentage of toxin crossing the Caco-2 cell monolayers (%)

molecule: C=C1CCCC2=NCC(C)C(C)CC23CCC(C(O)CCC(=O)O)=CC3C2OC3(CC(C)CC2O3)CC2OC3(CCC4(OC(CCC4(C)O)C1)O3)CC(C)C2O (stereo not drawn)
unit annotation: %
measured result: 3.29
//
molecule: C=CC1=CC2C3O[C@]4(CCC(O4)[C@@H](C)C[C@@H](O)C3=O)C[C@H](O)C3=NCC[C@@]32CC1 (stereo partly drawn)
unit annotation: %
measured result: 24.23
//
molecule: C=C1CCCC2=NCC(C)C(C)CC23CCC(C(=O)O)=CC3C2OC3(CC4CCCC5(CCC6(OC(CCC6(C)O)C1)O5)O4)CC(C)C(O)C2O3 (stereo not drawn)
unit annotation: %
measured result: 3.44

###

Listed here are compounds together with their documented Papp at 2 h, 8 ng/mL.
assay: Toxin crossing and apparent permeability across Caco-2 cell monolayers (A to B), LC-MS/MS; type: in vitro ADME, human; conditions: human, Caco-2; 2 h, loaded 8 ng/mL, A to B

compound: C=C1CCCC2=NCC(C)C(C)CC23CCC(C2CCC(=O)O2)=CC3C2OC3(CC(C)CC2O3)CC2OC3(CCC4(OC(CCC4(C)O)C1)O3)CC(C)C2O (stereo not drawn)
Papp at 2 h, 8 ng/mL [×10⁻⁶ cm/s]: 8.95

compound: C=CC1=CC2C3O[C@]4(CCC(O4)[C@@H](C)C[C@@H](O)C3=O)C[C@H](O)C3=NCC[C@@]32CC1 (stereo partly drawn)
Papp at 2 h, 8 ng/mL [×10⁻⁶ cm/s]: 5.72

compound: C=CC1=CC2C3OC4(CC(C)CC3O4)CC3OC4(CCC5(OC(CCC5(C)O)CC(=C)CCCC5=NCC(C)C(C)CC52CC1)O4)CC(C)C3O (stereo not drawn)
Papp at 2 h, 8 ng/mL [×10⁻⁶ cm/s]: 19.5

compound: C=C1CCCC2=NCC(C)C(C)CC23CCC(C(O)CCC(=O)O)=CC3C2OC3(CC(C)CC2O3)CC2OC3(CCC4(OC(CCC4(C)O)C1)O3)CC(C)C2O (stereo not drawn)
Papp at 2 h, 8 ng/mL [×10⁻⁶ cm/s]: 3.75

compound: C=CC1=CC2C3OC4(CC5CCCC6(CCC7(OC(CCC7(C)O)CC(=C)CCCC7=NCC(C)C(C)CC72CC1)O6)O5)CC(C)C(O)C3O4 (stereo not drawn)
Papp at 2 h, 8 ng/mL [×10⁻⁶ cm/s]: 9.69

compound: C=C1CCCC2=NCC(C)C(C)CC23CCC(C(=O)O)=CC3C2OC3(CC4CCCC5(CCC6(OC(CCC6(C)O)C1)O5)O4)CC(C)C(O)C2O3 (stereo not drawn)
Papp at 2 h, 8 ng/mL [×10⁻⁶ cm/s]: 1.45

###

system: Caco-2 cell monolayers; experiment: Toxin crossing and apparent permeability across Caco-2 cell monolayers (A to B), LC-MS/MS; format: in vitro ADME, human; details: 2 h, 16 ng/mL, relative to theoretical loaded concentration
# if measured % theoretical amount of toxin crossing the Caco-2 cell monolayers < 3%: class 1  # else: class 0

compound: C=CC1=CC2C3OC4(CC5CCCC6(CCC7(OC(CCC7(C)O)CC(=C)CCCC7=NCC(C)C(C)CC72CC1)O6)O5)CC(C)C(O)C3O4 (stereo not drawn) [PnTX-G, Pinnatoxin G]
category: class 0

compound: C=C1CCCC2=NCC(C)C(C)CC23CCC(C(O)CCC(=O)O)=CC3C2OC3(CC(C)CC2O3)CC2OC3(CCC4(OC(CCC4(C)O)C1)O3)CC(C)C2O (stereo not drawn) [PnTX-E]
category: class 1

compound: C=C1CCCC2=NCC(C)C(C)CC23CCC(C(=O)O)=CC3C2OC3(CC4CCCC5(CCC6(OC(CCC6(C)O)C1)O5)O4)CC(C)C(O)C2O3 (stereo not drawn) [PnTX-A]
category: class 1

compound: C=C1CCCC2=NCC(C)C(C)CC23CCC(C2CCC(=O)O2)=CC3C2OC3(CC(C)CC2O3)CC2OC3(CCC4(OC(CCC4(C)O)C1)O3)CC(C)C2O (stereo not drawn) [PnTX-F]
category: class 0

compound: C=CC1=CC2C3OC4(CC(C)CC3O4)CC3OC4(CCC5(OC(CCC5(C)O)CC(=C)CCCC5=NCC(C)C(C)CC52CC1)O4)CC(C)C3O (stereo not drawn) [PnTX-H, Pinnatoxin H]
category: class 0

compound: C=CC1=CC2C3O[C@]4(CCC(O4)[C@@H](C)C[C@@H](O)C3=O)C[C@H](O)C3=NCC[C@@]32CC1 (stereo partly drawn) [Portimine, portimine]
category: class 0
